src = patent US20240076285A1

tested_target: hSTING (Homo sapiens, UniProt Q86WV6, G230A/H232R/R293Q/R71H)
Construct: host or cells: THP1-Dual KO-IFNAR2 cells
Sequence (Q86WV6 whole entry R71H/G230A/H232R/R293Q): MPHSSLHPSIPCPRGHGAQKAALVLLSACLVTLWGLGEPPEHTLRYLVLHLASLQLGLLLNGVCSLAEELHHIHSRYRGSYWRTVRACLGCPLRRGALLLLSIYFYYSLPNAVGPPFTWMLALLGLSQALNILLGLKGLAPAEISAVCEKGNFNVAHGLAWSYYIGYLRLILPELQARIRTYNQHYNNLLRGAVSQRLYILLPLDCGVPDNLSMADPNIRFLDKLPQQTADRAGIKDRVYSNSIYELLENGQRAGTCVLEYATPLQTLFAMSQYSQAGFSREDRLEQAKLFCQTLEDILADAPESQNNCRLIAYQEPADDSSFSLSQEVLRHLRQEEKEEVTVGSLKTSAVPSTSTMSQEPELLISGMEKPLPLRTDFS
assay_overview: STING reporter assay in THP1-Dual KO-IFNAR2 cells (2'3'cGAMP stimulation, luciferase reporter)
Type: cell-based
details: 15 μM 2'3'cGAMP, 24 h, class symbols
pEC50: −log10 of the molar value.
readout: pEC50

Some solved entries appear below for comparison.
N#Cc1cc(Nc2ccc3c(c2)OCCO3)cc(Nc2cc(Cl)c3cc[nH]c3c2)n1 = 5.30 to 6.00
N#Cc1cc(Nc2ccc(C(F)(F)F)c(Cl)c2)cc(Nc2ccc3cc[nH]c3c2)n1 = 6.00 to 6.70
CCc1ccc(Nc2cc(C#N)nc(Nc3cc(Cl)c4cc[nH]c4c3)c2)cn1 = 6.00 to 6.70
N#Cc1cc(Nc2cc(F)cc(Cl)c2)cc(Nc2cc(Cl)c3cc[nH]c3c2)n1 = 6.00 to 6.70

Query: Returns the measured pEC50 for the input molecule. Input: CC(C)(C)c1cncc(Nc2cc(C#N)nc(Nc3cc(Cl)c4cc[nH]c4c3)c2)c1
Result: 6.00 to 6.70

Query: Returns the measured pEC50 for the input molecule. Input: COc1ccc(Nc2cc(C#N)nc(Nc3cc(Cl)c4cc[nH]c4c3)c2)cn1
Result: 6.00 to 6.70

Query: Entry N#Cc1cc(Nc2ccc3c(c2)C(=O)NC3)cc(Nc2ccc3cc[nH]c3c2)n1 has what pEC50?
Result: 4.00 to 5.30

Query: # lookup: pEC50 of N#Cc1cc(Nc2cc(Cl)cc(OC(F)(F)F)c2)cc(Nc2cc(Cl)c3cc[nH]c3c2)n1
Result: 6.00 to 6.70

Query: What value of measured pEC50 is listed for N#Cc1cc(Nc2ccc(Cl)c(Cl)c2)cc(Nc2ccc3cc[nH]c3c2)n1 ?
Result: 6.00 to 6.70

Query: Look up pEC50 for this molecule: N#Cc1cc(N2CCC(Cc3ccc(F)cc3)CC2)cc(Nc2cc(Cl)c3cc[nH]c3c2)n1
Result: 6.00 to 6.70

Query: I'd like to know its pEC50. The molecule in question is CNC(=O)c1ccc(Nc2cc(C#N)nc(Nc3ccc4cc[nH]c4c3)c2)cc1F
Result: 4.00 to 5.30

Query: Which pEC50 is reported for this molecule? Fc1cnc(Nc2ccc3cc[nH]c3c2)cc1Nc1ccc2cc[nH]c2c1
Result: 5.30 to 6.00
